# TEST SYSTEM: A1PI (Homo sapiens)
# Construct: Human plasma is currently the only approved source of therapeutic AlPI
# MEASUREMENT NOTES: A1PI binding on peptide-resin column, injection of 1 mg A1PI in equilibration buffer
# MEASUREMENT CONTEXT: VIFLVR point mutations; 1 mg A1PI, 4° C.
OUTCOME MEASURE: % of Total A1PI Eluted by Fraction (Based on Absorbance at 280 nm), 2% Acetic Acid
A complete answer gives the number followed by the unit.

SUBSTANCE	OBSERVED MEASUREMENT
K I F L V R: point mutation of VIFLVR, position 1 (KIFLVR)	97%
V H F L V R: point mutation of VIFLVR, position 2 (VHFLVR)	65%

Item VIFLVA: point mutation of VIFLVR, position 6, C-terminal Arg replaced with Ala : provide % of Total A1PI Eluted by Fraction (Based on Absorbance at 280 nm), 2% Acetic Acid 21%

Item V I F L F R: point mutation of VIFLVR, position 5 (VIFLFR) : provide % of Total A1PI Eluted by Fraction (Based on Absorbance at 280 nm), 2% Acetic Acid 56%

Item V K F L V R: point mutation of VIFLVR, position 2 (VKFLVR) : provide % of Total A1PI Eluted by Fraction (Based on Absorbance at 280 nm), 2% Acetic Acid 34%

Item V I F L A R: point mutation of VIFLVR, position 5 (VIFLAR) : provide % of Total A1PI Eluted by Fraction (Based on Absorbance at 280 nm), 2% Acetic Acid 75%

====

# TEST SYSTEM: A1PI (Homo sapiens, UniProt P01009)
# Construct: Human plasma is currently the only approved source of therapeutic AlPI
# Sequence (P01009 25-418): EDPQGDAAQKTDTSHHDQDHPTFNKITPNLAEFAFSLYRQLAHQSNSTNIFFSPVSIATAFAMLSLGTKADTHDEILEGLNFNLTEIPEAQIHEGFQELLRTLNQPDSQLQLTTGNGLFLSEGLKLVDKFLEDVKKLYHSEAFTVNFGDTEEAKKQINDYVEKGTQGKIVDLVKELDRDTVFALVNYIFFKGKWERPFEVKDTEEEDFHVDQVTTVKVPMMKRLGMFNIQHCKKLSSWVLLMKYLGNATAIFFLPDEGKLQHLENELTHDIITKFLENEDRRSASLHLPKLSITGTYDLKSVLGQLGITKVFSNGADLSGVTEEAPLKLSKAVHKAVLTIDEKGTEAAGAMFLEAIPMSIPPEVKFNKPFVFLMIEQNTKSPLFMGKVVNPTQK
# MEASUREMENT NOTES: A1PI binding on peptide-resin column, injection of 1 mg A1PI in equilibration buffer
# MEASUREMENT CONTEXT: Trp position mutations; 1 mg A1PI, 4° C.
# Procedure: Confirmatory binding assays were performed in a column chromatographic format on a microbore HPLC using individual peptide sequences synthesized directly onto the Toyopearl 650 M Chelate resin which had been modified with Totda followed by an alanine residue (A-Totda-Toyopearl), at a final substitution density of 0.1 mmole/g resin. The resin was packed into 0.4×5 cm columns (Thomson, Springfield, Va.) and tested on the Michrom HPLC system (Michrom BioResources, Auburn, Calif.). […]
Ends that are not written are not given here.
Documented % of Total A1PI Eluted by Fraction (Based on Absorbance at 280 nm), 1M NaCl across a set of substances
A complete answer gives the number followed by the unit.

Illustrative cases are given below, each with its answer.
SUBSTANCE	OBSERVED MEASUREMENT
V I S L V R: VIWLVR with Trp at position 3 replaced by Ser (VISLVR)	100%
VIWLVR	25%
V I N L V R: VIWLVR with Trp at position 3 replaced by Asn (VINLVR)	8%

Item VIYLVR: VIWLVR with Trp at position 3 replaced by Tyr : provide % of Total A1PI Eluted by Fraction (Based on Absorbance at 280 nm), 1M NaCl 28%

Item V I V L V R: VIWLVR with Trp at position 3 replaced by Val (VIVLVR) : provide % of Total A1PI Eluted by Fraction (Based on Absorbance at 280 nm), 1M NaCl 5%

Item V I L L V R: VIWLVR with Trp at position 3 replaced by Leu (VILLVR) : provide % of Total A1PI Eluted by Fraction (Based on Absorbance at 280 nm), 1M NaCl 7%

Item V I D L V R: VIWLVR with Trp at position 3 replaced by Asp (VIDLVR) : provide % of Total A1PI Eluted by Fraction (Based on Absorbance at 280 nm), 1M NaCl 0%

Item V I R L V R: VIWLVR with Trp at position 3 replaced by Arg (VIRLVR) : provide % of Total A1PI Eluted by Fraction (Based on Absorbance at 280 nm), 1M NaCl 90%

Item VIFLVR : provide % of Total A1PI Eluted by Fraction (Based on Absorbance at 280 nm), 1M NaCl 3%

Item V I A L V R: VIWLVR with Trp at position 3 replaced by Ala (VIALVR) : provide % of Total A1PI Eluted by Fraction (Based on Absorbance at 280 nm), 1M NaCl 92%

====

# TEST SYSTEM: A1PI (Homo sapiens)
# Construct: Human plasma is currently the only approved source of therapeutic AlPI
# MEASUREMENT NOTES: A1PI purification from 5 mg hSA + 1 mg A1PI on peptide column, A1PI mass balance
# Format: binding
# MEASUREMENT CONTEXT: A1PI; 5 mg hSA + 1 mg A1PI, 20° C.; * Below detection limit
Ends that are not written are not given here.
OUTCOME MEASURE: Mass Protein per Eluate Fraction, 1M NaCl (mg)
The reply should be a number in mg, with the unit left off.

Illustrative cases are given below, each with its answer.
SUBSTANCE	OBSERVED MEASUREMENT
RFIYYT	0.11
WKLWRW	0.15
WIKWTK	0.80
RLWRYG	0.42
RAFWYI	0.14

Now let's try a different one.
Item RYRIFI : provide Mass Protein per Eluate Fraction, 1M NaCl 0.21

====

# TEST SYSTEM: A1PI (Homo sapiens)
# Construct: Human plasma is currently the only approved source of therapeutic AlPI
# MEASUREMENT NOTES: A1PI binding on peptide-resin column, injection of 1 mg A1PI in equilibration buffer
# MEASUREMENT CONTEXT: VIWLVR N-terminal point mutations; 1 mg A1PI, 4° C.
# Procedure: Confirmatory binding assays were performed in a column chromatographic format on a microbore HPLC using individual peptide sequences synthesized directly onto the Toyopearl 650 M Chelate resin which had been modified with Totda followed by an alanine residue (A-Totda-Toyopearl), at a final substitution density of 0.1 mmole/g resin. The resin was packed into 0.4×5 cm columns (Thomson, Springfield, Va.) and tested on the Michrom HPLC system (Michrom BioResources, Auburn, Calif.). […]
Ends that are not written are not given here.
The label depends only on % of Total A1PI Eluted by Fraction (Based on Absorbance at 280 nm), 1M NaCl: 1.0 if it is at least 90%, 0.0 if it is smaller.

SUBSTANCE	ASSIGNED LABEL
DSWLVR: point mutation of VIWLVR on Ala-Totda-Toyopearl (not fully specified (C-terminus))	0.0
SNWLVR: point mutation of VIWLVR on Ala-Totda-Toyopearl (not fully specified (C-terminus))	1.0
NDWLVR: point mutation of VIWLVR on Ala-Totda-Toyopearl (not fully specified (C-terminus))	0.0
VIWLVR	0.0
NSWLVR: point mutation of VIWLVR on Ala-Totda-Toyopearl (not fully specified (C-terminus))	0.0

Determine whether measured % of Total A1PI Eluted by Fraction (Based on Absorbance at 280 nm), 1M NaCl meets or exceeds 90% for SHWLVR: point mutation of VIWLVR on Ala-Totda-Toyopearl (not fully specified (C-terminus)) 0.0

Determine whether measured % of Total A1PI Eluted by Fraction (Based on Absorbance at 280 nm), 1M NaCl meets or exceeds 90% for SSWLVR: point mutation of VIWLVR on Ala-Totda-Toyopearl (not fully specified (C-terminus)) 1.0

Determine whether measured % of Total A1PI Eluted by Fraction (Based on Absorbance at 280 nm), 1M NaCl meets or exceeds 90% for HHWLVR: point mutation of VIWLVR on Ala-Totda-Toyopearl (not fully specified (C-terminus)) 0.0

Determine whether measured % of Total A1PI Eluted by Fraction (Based on Absorbance at 280 nm), 1M NaCl meets or exceeds 90% for NNWLVR: point mutation of VIWLVR on Ala-Totda-Toyopearl (not fully specified (C-terminus)) 0.0

Determine whether measured % of Total A1PI Eluted by Fraction (Based on Absorbance at 280 nm), 1M NaCl meets or exceeds 90% for DHWLVR: point mutation of VIWLVR on Ala-Totda-Toyopearl (not fully specified (C-terminus)) 0.0

Determine whether measured % of Total A1PI Eluted by Fraction (Based on Absorbance at 280 nm), 1M NaCl meets or exceeds 90% for DNWLVR: point mutation of VIWLVR on Ala-Totda-Toyopearl (not fully specified (C-terminus)) 0.0

Determine whether measured % of Total A1PI Eluted by Fraction (Based on Absorbance at 280 nm), 1M NaCl meets or exceeds 90% for DDWLVR: point mutation of VIWLVR on Ala-Totda-Toyopearl (not fully specified (C-terminus)) 0.0

====

Documented % of Total A1PI Eluted by Fraction (Based on Absorbance at 280 nm), 2% Acetic Acid across a set of substances
# TEST SYSTEM: A1PI (Homo sapiens)
# Construct: Human plasma is currently the only approved source of therapeutic AlPI
# MEASUREMENT NOTES: A1PI binding on peptide-resin column, injection of 1 mg A1PI in equilibration buffer
# MEASUREMENT CONTEXT: VIWLVR N-terminal point mutations; 1 mg A1PI, 4° C.
Ends that are not written are not given here.
The reply should be a number in %, with the unit left off.

SUBSTANCE	OBSERVED MEASUREMENT
HDWLVR: point mutation of VIWLVR on Ala-Totda-Toyopearl (not fully specified (C-terminus))	0
SDWLVR: point mutation of VIWLVR on Ala-Totda-Toyopearl (not fully specified (C-terminus))	1
NNWLVR: point mutation of VIWLVR on Ala-Totda-Toyopearl (not fully specified (C-terminus))	4
SNWLVR: point mutation of VIWLVR on Ala-Totda-Toyopearl (not fully specified (C-terminus))	5
VIWLVR	30

Item NHWLVR: point mutation of VIWLVR on Ala-Totda-Toyopearl (not fully specified (C-terminus)) : provide % of Total A1PI Eluted by Fraction (Based on Absorbance at 280 nm), 2% Acetic Acid 17
